Recorded values, source patent US20230416262A1.

Test system: THP-1 cells
test: Lamp1 lysosomal exocytosis assay
Type: cell-based
condition_summary: Homo sapiens, 55 min, 55 min incubation, top dose 20 μM
measured_attribute: EC50

* O=C(NCc1cccnc1)C1CCC2(CC1)CN(S(=O)(=O)c1ccc(C(F)F)cc1)c1ccccc12 (stereo not shown) | ≥ 5.01 µM
* CN(C)S(=O)(=O)c1ccc(S(=O)(=O)N2CC3(CCCC3)c3ccccc32)cc1 | ≤ 0.5 µM
* O=C(Nc1cncc(F)c1)N1CCC2(CC1)CN(S(=O)(=O)c1ccc(C(F)F)cc1)c1ccccc12 | ≥ 5.01 µM
* O=C(COC1CCOC1)N1CCC2(CC1)CN(S(=O)(=O)c1ccc(C(F)F)cc1)c1ccccc12 (stereo not shown) | ≥ 5.01 µM
* Cc1nn2c(c1C)N(S(=O)(=O)c1ccc(S(=O)(=O)N(C)C)cc1)CC21CCCCC1 | ≥ 5.01 µM
* CN(C)S(=O)(=O)c1ccc(S(=O)(=O)N2CC3(CCN(C(=O)C(C)(C)C)CC3)c3ccccc32)cc1 | 1.01 to 5 µM
* O=S(=O)(c1ccc(C(F)F)cc1)N1CC2(CCN(Cc3ncccn3)CC2)c2ccccc21 | ≥ 5.01 µM
